Origin of values: patent US7385026B1

molecular target: rat GHS-receptor (GHR-R) (Rattus norvegicus, UniProt O08725); construct: A full-length cDNA for rat GHR-R was obtained by RT-PCR; expressed in transfected cells; assay: Ca-releasing activity (increase in intracellular calcium) in CHO-GHSR62 cells, FLIPR; format: cell-based; conditions: CHO-GHSR62 cells (CHO cells expressing rat GHS receptor), FLIPR; read-out: Ca-releasing activity EC50
Sequence (O08725 whole entry): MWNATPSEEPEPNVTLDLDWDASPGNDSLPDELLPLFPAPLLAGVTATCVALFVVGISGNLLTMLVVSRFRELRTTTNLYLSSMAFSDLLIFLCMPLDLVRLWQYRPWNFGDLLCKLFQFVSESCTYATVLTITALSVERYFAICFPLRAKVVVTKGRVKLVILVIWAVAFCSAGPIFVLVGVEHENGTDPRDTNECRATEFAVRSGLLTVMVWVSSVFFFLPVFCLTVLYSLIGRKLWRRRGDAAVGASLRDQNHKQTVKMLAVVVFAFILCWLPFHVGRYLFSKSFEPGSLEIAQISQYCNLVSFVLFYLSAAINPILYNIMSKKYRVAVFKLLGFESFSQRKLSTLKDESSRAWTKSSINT
pEC50: −log10 of the molar value. Square brackets hold non-standard residues; d marks the D form. Peptide text beside a SMILES is read from it. * marks the point of attachment. d2Nal = N[C@H](Cc1ccc2ccccc2c1)C(=O)O; Octanoyl = CCCCCCCC(=O)*; Aib = CC(C)(N)C(=O)O; Ava = NCCCCC(=O)O; Octyl = CCCCCCCC*
measurementKind: pEC50

CC(C)(N)C(=O)N[C@@H](Cc1c[nH]cn1)C(=O)N[C@H](Cc1ccc2ccccc2c1)C(=O)N[C@H](Cc1ccccc1)C(=O)N[C@@H](CCCCN)C(N)=O [Compound 80, reference compound] (H-[Aib]H[d2Nal][dF]K-NH2); 8.60
CCCCCCCC(=O)OC[C@H](NC(=O)[C@H](CO)NC(=O)CN)C(=O)N[C@@H](Cc1ccccc1)C(=O)N[C@@H](CC(C)C)C(=O)N[C@@H](CCCCN)C(N)=O [Compound 37, [Lys^6]-Ghrelin (1-6)-amide] (H-GSS(Octanoyl)FLK-NH2); 7.92
CCCCCCCCOC[C@H](NC(=O)[C@H](Cc1c[nH]cn1)NC(=O)C(C)(C)N)C(=O)N[C@@H](Cc1ccccc1)C(=O)N[C@@H](CCCCN)C(N)=O [Compound 78] (H-[Aib]HS(Octyl)FK-NH2); 7.47
CCCCCCCC(=O)OC[C@H](NC(=O)CN)C(=O)N[C@@H](Cc1ccccc1)C(=O)N[C@@H](CC(C)C)C(=O)N[C@@H](CO)C(=O)N1CCC[C@H]1C(N)=O [Compound 43, [N-Glycyl]-Ghrelin (3-7)-amide] (H-GS(Octanoyl)FLSP-NH2); 6.42
CCCCCCCC(=O)OC[C@H](NC(=O)[C@H](CO)NC(=O)CN)C(=O)N[C@@H](Cc1ccccc1)C(=O)N[C@@H](CC(C)C)C(=O)N[C@@H](CO)C(=O)N1CCC[C@H]1C(=O)N[C@@H](CCCCN)C(N)=O [Compound 35, [Lys^8]-Ghrelin (1-8)-amide] (H-GSS(Octanoyl)FLSPK-NH2); 8.96
CCCCCCCCOC[C@H](NC(=O)CCCCN)C(=O)N[C@@H](Cc1ccccc1)C(=O)N[C@@H](CC(C)C)C(=O)NCc1ccccc1; 7.01
CCCCCCCCOC[C@H](NC(=O)[C@H](CO)NC(=O)CN)C(=O)N[C@@H](Cc1ccccc1)C(=O)N[C@@H](CC(C)C)C(=O)N[C@@H](CO)C(=O)N1CCC[C@H]1C(N)=O [Compound 50, [Ser^3(Octyl)]-Ghrelin (1-7)-amide]; 8.24
CCCCCCCCOC[C@H](NC(=O)CCCCN)C(=O)N[C@@H](Cc1ccccc1)C(=O)N[C@@H](CC(C)C)C(=O)NCC; 7.66
CCCCCCCC(=O)OC[C@H](NC(=O)CNC(=O)CN)C(=O)N[C@@H](Cc1ccccc1)C(=O)N[C@@H](CC(C)C)C(=O)N[C@@H](CO)C(=O)N1CCC[C@H]1C(N)=O [Compound 47, [Gly^2]-Ghrelin (1-7)-amide] (H-GGS(Octanoyl)FLSP-NH2); 7.11
CCCCCCCC(=O)OC[C@H](NC(=O)CCCCN)C(=O)N[C@@H](Cc1ccccc1)C(=O)N[C@@H](CC(C)C)C(=O)N[C@@H](CO)C(=O)N1CCC[C@H]1C(N)=O [Compound 40, [N-Aminopentanoyl]-Ghrelin (3-7)-amide] (H-[Ava]S(Octanoyl)FLSP-NH2); 8.47
CCCCCCCC(=O)OC[C@H](NC(=O)[C@H](CO)NC(=O)CN)C(=O)N[C@@H](Cc1ccccc1)C(=O)N[C@@H](CC(C)C)C(=O)N[C@@H](CO)C(=O)N1CCC[C@H]1C(=O)N[C@@H](CCC(=O)O)C(N)=O [Compound 28, Ghrelin (1-8)-amide]; 7.89
CCCCCCCC(=O)OC[C@H](NC(=O)[C@H](CO)NC(=O)CN)C(=O)N[C@@H](Cc1ccccc1)C(=O)N[C@@H](CC(C)C)C(=O)N[C@@H](CO)C(=O)N1CCC[C@H]1C(N)=O [Compound 29, Ghrelin (1-7)-amide]; 8.59
CCCCCCCC(=O)OC[C@H](NC(=O)[C@H](CO)NC(=O)CN)C(=O)N[C@@H](Cc1ccccc1)C(=O)N[C@@H](CC(C)C)C(N)=O [Compound 32, Ghrelin (1-5)-amide] (H-GSS(Octanoyl)FL-NH2); 8.21

---

Target: rat GHS-receptor (GHR-R) (Rattus norvegicus, UniProt O08725)
Construct: A full-length cDNA for rat GHR-R was obtained by RT-PCR; expressed in transfected cells
Test: Ca-releasing activity (increase in intracellular calcium) in CHO-GHSR62 cells, FLIPR
Type: cell-based
Conditions: CHO-GHSR62 cells (CHO cells expressing rat GHS receptor), FLIPR; read-out: Ca-releasing activity EC50
Protocol: To assay an increase in the intracellular calcium ion concentration (Ca-releasing activity) occurring upon binding of a GH secretagogue (GHS) to GHS-receptor (GHR-R), a cell strain expressing rat GHR-R was created in the following manner. […] The amplified cDNA was ligated to vector pcDNAIII (Invitrogen) to construct expression vector GHSR-pcDNAIII. […] A change in the intracellular calcium ion concentration (Ca-releasing activity) was measured by an FLIPR system (Molecular Device). […]
Peptide text beside a SMILES is read from it. * marks the point of attachment. Octanoyl = CCCCCCCC(=O)*
measurementKind: EC50 (nM)

CCCCCCCC(=O)OC[C@H](NC(=O)[C@H](Cc1c[nH]cn1)NC(=O)CN)C(=O)N[C@@H](Cc1ccccc1)C(=O)N[C@@H](CC(C)C)C(=O)N[C@@H](CO)C(=O)N1CCC[C@H]1C(N)=O [Compound 45, [His^2]-Ghrelin (1-7)-amide] (H-GHS(Octanoyl)FLSP-NH2); 35
CCCCCCCC(=O)OC[C@H](NC(=O)[C@H](CO)NC(=O)CN)C(=O)N[C@@H](Cc1ccccc1)C(=O)N[C@@H](CC(C)C)C(=O)N[C@@H](CO)C(=O)N1CCC[C@H]1C(=O)N[C@@H](CCC(=O)O)C(=O)N[C@@H](Cc1c[nH]cn1)C(=O)O [Compound 26, Ghrelin (1-9)] (H-GSS(Octanoyl)FLSPEH-OH); 38
CCCCCCCC(=O)OC[C@H](NC(=O)[C@H](CO)NC(=O)CN)C(=O)N[C@@H](Cc1ccccc1)C(=O)N[C@@H](CC(C)C)C(=O)N[C@@H](CO)C(=O)N1CCC[C@H]1C(=O)N[C@@H](CCC(=O)O)C(=O)N[C@@H](Cc1c[nH]cn1)C(=O)N[C@@H](CCC(N)=O)C(=O)N[C@@H](CCCNC(=N)N)C(=O)N[C@H](C(=O)N[C@@H](CCC(N)=O)C(=O)N[C@@H](CCC(N)=O)C(=O)N[C@@H](CCCNC(=N)N)C(=O)O)C(C)C [Compound 20, hGhrelin (1-15)]; 7

---

target: rat GHS-receptor (GHR-R) (Rattus norvegicus, UniProt O08725); construct: A full-length cDNA for rat GHR-R was obtained by RT-PCR; expressed in transfected cells; assay: Ca-releasing activity (increase in intracellular calcium) in CHO-GHSR62 cells, FLIPR; format: cell-based; conditions: CHO-GHSR62 cells (CHO cells expressing rat GHS receptor), FLIPR; read-out: Ca-releasing activity EC50
pEC50: −log10 of the molar value. Peptide text beside a SMILES is read from it. * marks the point of attachment. Octanoyl = CCCCCCCC(=O)*
measurementKind: pEC50

CCCCCCCCOC[C@@H](NC(=O)[C@H](CO)NC(=O)CN)C(=O)N[C@H](Cc1ccccc1)C(=O)N[C@@H](CC(C)C)C(=O)N[C@@H](CO)C(=O)N1CCC[C@H]1C(N)=O; < 5.00
CCCCCCCC(=O)NCC(=O)N[C@@H](CO)C(=O)N[C@@H](CO)C(=O)N[C@@H](Cc1ccccc1)C(=O)N[C@@H](CC(C)C)C(=O)N[C@@H](CO)C(=O)N1CCC[C@H]1C(=O)N[C@@H](CCC(=O)O)C(=O)N[C@@H](Cc1c[nH]cn1)C(N)=O [Compound 6, [N-Octanoyl, Ser^3]-Ghrelin (1-9)-amide] (Octanoyl-GSSFLSPEH-NH2); < 5.00
CCCCCCCCOC[C@@H](NC(=O)[C@H](CO)NC(=O)CN)C(=O)N[C@@H](Cc1ccccc1)C(=O)N[C@@H](CC(C)C)C(=O)N[C@@H](CO)C(=O)N1CCC[C@H]1C(N)=O [Compound 52, [^DSer^3(Octyl)]-Ghrelin (1-7)-amide]; < 5.00
